subject_of_test: recombinant rat MASP2 active protease (amino acids 296-685, C-terminal His Tag) (rat, UniProt Q9JJS8 296-685)
Sequence (Q9JJS8 other isoform, or with tags, fused parts or gaps limits assumed): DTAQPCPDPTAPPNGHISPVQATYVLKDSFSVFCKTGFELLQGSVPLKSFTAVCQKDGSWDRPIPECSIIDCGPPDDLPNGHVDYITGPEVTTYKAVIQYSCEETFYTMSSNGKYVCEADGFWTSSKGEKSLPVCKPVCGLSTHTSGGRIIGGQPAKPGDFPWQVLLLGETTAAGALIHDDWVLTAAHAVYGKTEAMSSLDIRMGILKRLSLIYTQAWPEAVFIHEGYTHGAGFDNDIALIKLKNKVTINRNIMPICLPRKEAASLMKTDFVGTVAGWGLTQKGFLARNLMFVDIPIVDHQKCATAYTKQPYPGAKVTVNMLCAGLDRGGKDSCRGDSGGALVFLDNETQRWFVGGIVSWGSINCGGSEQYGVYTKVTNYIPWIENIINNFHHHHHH
test_protocol: cell-based or functional assay
Numbered stars: 1 amine (or outer) side, 2 acyl side, 3 side chain; on linkers, the order of the positions; unused ones are H or OH. Bridge positions count the residues as written; N and C are the ends. Square brackets hold non-standard residues; d marks the D form. Ends that are not written are not given here. X3 = (1R,3S)‑3‑(Amino)cyclopentanecarboxylic acid, O=C([C@@H]1CC[C@H](N[*:1])C1)[*:2]; Oic = O=C(O)[C@@H]1C[C@@H]2CCCC[C@@H]2N1; Pen = CC(C)(S)[C@H](N)C(=O)O; Sar = CNCC(=O)O
Property: rat MASP2 IC50; scope: individual binders
measured_quantity: rat MASP2 IC50 (nM)

binder	meas_value
[Sar]ICSRSLP[Oic]I[Pen]IPD[PEG4‑CH2CO2H(15atoms)]-OH (disulfide 3-11) [Example 471: ((N-Me)G)-IC+SRSLP-(Oic)-I-(Pen)+IPD-(PEG4-CH2CO2H (15 atoms))-OH]	71
[Sar]ICSRSLP[Oic]I[Pen]I[5‑Azaspiro(2.4)heptane‑1‑carboxylic acid]-OH (disulfide 3-11) [Example 419: ((N-Me)G)-IC+SRSLP-(Oic)-I-(Pen)+I-((5-Azaspiro[2.4]heptane-1-carboxylic acid)-OH]	42
[Sar]ICSRSLP[Oic]I[Pen]IP[X3]-OH (disulfide 3-11; N-terminus assumed; SMILES CC[C@H](C)[C@H](NC(=O)CNC)C(=O)N[C@H]1CSSC(C)(C)[C@@H](C(=O)N[C@H](C(=O)N2CCC[C@H]2C(=O)N[C@H]2CC[C@@H](C(=O)O)C2)[C@@H](C)CC)NC(=O)[C@H]([C@@H](C)CC)NC(=O)[C@@H]2C[C@@H]3CCCC[C@@H]3N2C(=O)[C@@H]2CCCN2C(=O)[C@H](CC(C)C)NC(=O)[C@H](CO)NC(=O)[C@H](CCCNC(=N)N)NC(=O)[C@H](CO)NC1=O) [Example 449: ((N-Me)G)-IC+SRSLP-(Oic)-I-(Pen)+IP-((1R,3S)-3-(Amino)cyclopentanecarboxylic acid)-OH]	44.5
